# measurement.notes: In vitro rat microsomal stability assay
# Format: in vitro ADME, rat (Sprague-Dawley)
# measurement.parameters: Sprague-Dawley, rat, 0.5 h, 0.5 μM, pH 7.4
Give measured RAT MICROSOMAL STABILITY (% REMAINING AFTER 30 MINUTES) for each item. Keep answers brief.

These recorded examples may help you get a feel for the data.
Inquiry: Query (molecule): OC(C1CCc2cccnc21)C1(c2cccc(C(F)(F)F)c2)CCC1 (centres unmarked) ; field requested: RAT MICROSOMAL STABILITY (% REMAINING AFTER 30 MINUTES)
Reply text: <0.01%

Inquiry: Same lookup for O=C1CC(c2cccc(OC(F)(F)F)c2)([C@H](O)c2ccccn2)C1 , please.
Reply text: 55%

List RAT MICROSOMAL STABILITY (% REMAINING AFTER 30 MINUTES) for every entry below, keeping the order given.
1. OC(C1CCc2cccnc21)C1(c2cccc(OC(F)(F)F)c2)CCC1 (centres unmarked) [Example 189]
2. O[C@H](c1ncccn1)C1(c2ccc(C(F)(F)F)cc2)CCC1
3. OC(C1CCc2cccnc21)C1(c2ccc(OC(F)(F)F)cc2)CCC1 (centres unmarked) [Example 176]

Reply text:
<0.01%
21%
<0.01%

###

# measurement.notes: In vitro human microsomal stability assay
# Type: in vitro ADME
# measurement.parameters: human, 0.5 h, 0.5 μM, pH 7.4
Can you tell me HUMAN MICROSOMAL STABILITY (% REMAINING AFTER 30 MINUTES) for the items I'm about to list?
Numbers only, in %.

Here are 3 molecules together with their reported answers.
Inquiry: What does the data say about its HUMAN MICROSOMAL STABILITY (% REMAINING AFTER 30 MINUTES)? Entry: OC(c1ccccn1)C1(c2ccc(Cc3ccccc3)cc2)CCC1 (centres unmarked) [Example 25]
Reply text: 21

Inquiry: Next record, please: OC(CC1(c2cccc(C(F)(F)F)c2)CCC1)c1ccccn1 (centres unmarked) [Example 74]
Reply text: 6.8

Inquiry: Next entry: Cc1ccccc1C1(C(O)c2ccccn2)CCCO1 (centres unmarked) [Example 90]
Reply text: 35

# per-item lookup of HUMAN MICROSOMAL STABILITY (% REMAINING AFTER 30 MINUTES); items listed below
1. OC(c1ccccn1)C1(c2ccc(OC(F)(F)F)cc2)CC(F)(F)C1 (centres unmarked) [Example 112]
2. OC(c1ccccn1)C1(c2ccc(OC(F)(F)F)cc2)CCCO1 (centres unmarked) [Example 95]

Reply text:
1. 75
2. 57

###

# measurement.notes: In vitro human microsomal stability assay
# Type: in vitro ADME
# measurement.parameters: human, 0.5 h, 0.5 μM, pH 7.4
# Description: Test compounds were evaluated for metabolic stability in an in vitro rat microsomal stability assay using rat (Sprague-Dawley, from BD Biosciences) liver microsomes and/or an in vitro human microsomal stability assay using human (Xenotech) liver microsomes. […] Incubations were carried out at 37° C. with a final incubation volume of 135 μL. […] A 1.5 μL aliquot of reduced nicotine adenine disphosphonucleotide (NADPH) (Chem-Impex Int'L Inc., Lot 12532024) was also added to the time-zero plates.
Would you mind telling me the reported HUMAN MICROSOMAL STABILITY (% REMAINING AFTER 30 MINUTES) of each entry?
Answers are plain numbers, in %.

Study these solved cases before continuing.
Inquiry: Request the reported HUMAN MICROSOMAL STABILITY (% REMAINING AFTER 30 MINUTES) associated with O=C1CC(c2cccc(OC(F)(F)F)c2)([C@H](O)c2ccccn2)C1
Reply text: 44

Inquiry: How about O=C1CC(c2ccc(F)c(Cl)c2)(C(O)c2ccccn2)C1 (centres unmarked) ?
Reply text: 70

Inquiry: Follow-up item: OC(c1ccccn1)C1(c2cccc(C(F)(F)F)c2)CCCO1 (centres unmarked) [Example 106]
Reply text: 3.9

Read the next record carefully.
Inquiry: Reported HUMAN MICROSOMAL STABILITY (% REMAINING AFTER 30 MINUTES) for OC(c1ccccn1)C1(c2ccc(OC(F)(F)F)cc2)CCOCC1 (centres unmarked) : what is it?
Reply text: 58

###

# tested.target: human TRPV3 (Homo sapiens, UniProt Q8NET8)
# Construct: expressed in transfected cells
# Sequence (Q8NET8 whole entry): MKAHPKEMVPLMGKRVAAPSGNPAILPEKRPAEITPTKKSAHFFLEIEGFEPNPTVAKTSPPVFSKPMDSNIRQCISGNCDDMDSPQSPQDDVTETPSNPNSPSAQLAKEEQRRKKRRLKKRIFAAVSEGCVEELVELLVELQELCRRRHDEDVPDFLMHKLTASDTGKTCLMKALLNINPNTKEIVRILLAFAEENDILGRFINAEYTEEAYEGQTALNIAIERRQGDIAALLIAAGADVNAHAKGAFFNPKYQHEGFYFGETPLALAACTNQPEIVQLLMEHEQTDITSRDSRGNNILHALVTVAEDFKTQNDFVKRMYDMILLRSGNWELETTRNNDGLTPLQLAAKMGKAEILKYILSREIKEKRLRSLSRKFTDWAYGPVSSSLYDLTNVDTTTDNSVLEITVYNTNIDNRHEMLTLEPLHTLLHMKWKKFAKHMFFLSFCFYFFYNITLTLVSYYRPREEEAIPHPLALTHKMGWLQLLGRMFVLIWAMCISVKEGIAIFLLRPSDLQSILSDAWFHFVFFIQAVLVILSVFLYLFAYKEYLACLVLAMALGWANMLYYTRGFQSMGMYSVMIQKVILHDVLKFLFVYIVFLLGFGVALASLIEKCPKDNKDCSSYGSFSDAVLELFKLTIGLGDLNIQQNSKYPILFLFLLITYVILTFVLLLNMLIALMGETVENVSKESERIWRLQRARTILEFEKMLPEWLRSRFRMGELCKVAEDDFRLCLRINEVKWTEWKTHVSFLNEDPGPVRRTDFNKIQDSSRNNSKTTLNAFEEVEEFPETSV
# measurement.notes: In vitro antagonism of recombinant human TRPV3 activation (FLIPR Tetra calcium assay, 2-APB as agonist)
# Type: cell-based
# measurement.parameters: HEK293 cells stably expressing human TRPV3; 2-APB 80 μM; range class; read-out: IC50 (reported range)
result.type: IC50

Example cases with answers are listed next.
Inquiry: # query: IC50 | item Cn1c(C2(C(O)c3ccccn3)CCC2)nc2ccccc21 (stereo not drawn) | system: human TRPV3 (Homo sapiens, UniProt Q8NET8)
Reply text: 5.1 to 20 µM

Inquiry: Another compound to look at: NC1CCC1C(O)C1(c2cccc(C(F)(F)F)c2)CCC1 (stereo not drawn)
Reply text: 1.1 to 5 µM

Inquiry: Can you handle OC(c1ccccn1)C1(c2ccccc2OC(F)(F)F)CCCO1 (stereo not drawn) [Example 96] next?
Reply text: 1.1 to 5 µM

Inquiry: And for CN[C@@H]1CCC[C@H]1[C@@H](O)C1(c2ccc(Cl)c(Cl)c2)CCC1 ?
Reply text: 1.1 to 5 µM

Report IC50 for every entry below.
1. OC(c1ccccn1)C1(c2cccc(Cl)c2)CCCO1 (stereo not drawn) [Example 105]
2. OC(c1ccccn1)C1(c2ccc(Cl)c(C(F)(F)F)c2)CC(F)(F)C1 (stereo not drawn)

Reply text:
["5.1 to 20 µM", "0.501 to 1 µM"]

###

Assign HUMAN MICROSOMAL STABILITY (% REMAINING AFTER 30 MINUTES) to each entry below.
# measurement.notes: In vitro human microsomal stability assay
# Format: in vitro ADME
# measurement.parameters: human, 0.5 h, 0.5 μM, pH 7.4
Answers are plain numbers, in %.

Inquiry: What value of measured HUMAN MICROSOMAL STABILITY (% REMAINING AFTER 30 MINUTES) is listed for OC(c1ccccn1)C1(c2nc3ccccc3s2)CCC1 (stereo not shown) ?
Reply text: 46

Inquiry: Try OC(c1ccccn1)C1(c2ccccc2OC(F)(F)F)CCCO1 (stereo not shown) [Example 97] next.
Reply text: 6.4

Inquiry: Another: CC(c1ccc(F)cc1)C1(C(O)c2ccccn2)CCC1 (stereo not shown)
Reply text: 11

Inquiry: Continue with O=C1CC(c2cccc(OC(F)(F)F)c2)(C(O)c2ccccn2)C1 (stereo not shown)
Reply text: 51

Report HUMAN MICROSOMAL STABILITY (% REMAINING AFTER 30 MINUTES) for each item below.
1. OC(c1ccccn1)C1(c2cccc(C(F)(F)F)c2)CCC1 (stereo not shown)
2. OC(c1ccccn1)C1(c2ccc(F)c(F)c2)CCC1 (stereo not shown)
3. OC(c1ccccn1)C1(c2cccc(F)c2)CCC1 (stereo not shown)
4. OC(c1ccccn1)C1(c2ccc(Oc3ccccc3)cc2)CCC1 (stereo not shown)

Reply text:
1.2
19
17
20

###

# measurement.notes: In vitro human microsomal stability assay
# Assay type: in vitro ADME
# measurement.parameters: human, 0.5 h, 0.5 μM, pH 7.4
Assignment: determine reported HUMAN MICROSOMAL STABILITY (% REMAINING AFTER 30 MINUTES) for the given compounds.
Answers are plain numbers, in %.

As a guide, the following entries are already answered.
Inquiry: Which HUMAN MICROSOMAL STABILITY (% REMAINING AFTER 30 MINUTES) is reported for this compound? OC(c1ccccn1)C1(c2cccc(Cl)c2)CCCO1 (stereo not drawn) [Example 105]
Reply text: 42

Inquiry: Then this compound: N[C@@H]1CCC[C@@H]1[C@@H](O)C1(c2ccc(OC(F)(F)F)cc2)CCC1 [Example 221]
Reply text: 83

Inquiry: Now this one: CN(C)N=C1CC(c2ccc(OC(F)(F)F)cc2)([C@H](O)c2ccccn2)C1 (stereo partly drawn) [Example 267]
Reply text: 64

Go through the items and report each one's HUMAN MICROSOMAL STABILITY (% REMAINING AFTER 30 MINUTES).
1. O=C1CC(c2ccc(C(F)(F)F)cc2)([C@H](O)c2ccccn2)C1 [Example 164]
2. OC(c1ccccn1)C1(c2ccc(Cl)c(Cl)c2)CC(F)(F)C1 (stereo not drawn) [Example 82]
3. O=C1CC(c2ccc(C(F)(F)F)cc2)([C@@H](O)c2ccccn2)C1 [Example 165]
4. OC(c1ccccn1)C1(c2ccc(OC(F)(F)F)cc2)CCCO1 (stereo not drawn) [Example 94]
5. OC(C1CCc2cccnc21)C1(c2ccc(Cl)c(Cl)c2)CCC1 (stereo not drawn) [Example 168]
6. Nc1cccnc1C(O)C1(c2ccc(OC(F)(F)F)cc2)CCC1 (stereo not drawn) [Example 121]
7. O=C1CC(c2cc(C(F)(F)F)ccn2)(C(O)c2ccccn2)C1 (stereo not drawn) [Example 293]

Reply text:
[71, 35, 83, 55, 5.6, 41, 78]

Please report HUMAN MICROSOMAL STABILITY (% REMAINING AFTER 30 MINUTES) for every entry that follows.
1. Cc1ccc(C2(C(O)c3ccccn3)CCC2)cc1 (stereo not drawn) [Example 9]
2. OC(C1CCc2cccnc21)C1(c2ccc(OC(F)(F)F)cc2)CCC1 (stereo not drawn) [Example 175]
3. OC(C1CCc2cccnc21)C1(c2ccc(F)c(F)c2)CCC1 (stereo not drawn) [Example 171]
4. CC1(O)CC(c2cccc(C(F)(F)F)c2)(C(O)c2ccccn2)C1 (stereo not drawn) [Example 244]

Reply text:
0.12
29
2.7
80

Give me HUMAN MICROSOMAL STABILITY (% REMAINING AFTER 30 MINUTES) for each of these compounds, listed below.
1. OC(c1ccccn1)C1(c2ccc(C(F)(F)F)cc2)CC2(C1)OCCO2 (stereo not drawn) [Example 161]
2. OC(C1CCc2cccnc21)C1(c2ccc(C(F)(F)F)cc2)CCC1 (stereo not drawn) [Example 174]
3. O=C1CC(c2cncc(C(F)(F)F)c2)(C(O)c2ccccn2)C1 (stereo not drawn) [Example 295]

Reply text:
1: 61; 2: 26; 3: 70

Go through the list and state HUMAN MICROSOMAL STABILITY (% REMAINING AFTER 30 MINUTES) for each entry.
1. OC(c1ccccn1)C1(c2ccc(C(F)(F)F)cn2)CC(F)(F)C1 (stereo not drawn) [Example 137]
2. OC(c1ccccn1)C1(C2CCOc3ccccc32)CCC1 (stereo not drawn) [Example 57]
3. O[C@@H](c1ncccn1)C1(c2ccc(C(F)(F)F)cc2)CCC1 [Example 42]
4. O=C1CC(c2cccc(C(F)(F)F)c2)([C@@H](O)c2ccccn2)C1 [Example 243]
5. OC1CC(c2cncc(C(F)(F)F)c2)(C(O)c2ccccn2)C1 (stereo not drawn) [Example 303]

Reply text:
[77, 16, 50, 64, 80]

Inquiry: Could you share which HUMAN MICROSOMAL STABILITY (% REMAINING AFTER 30 MINUTES) value was measured for ON=C1CC(c2ccc(OC(F)(F)F)cc2)([C@H](O)c2ccccn2)C1 (stereo partly drawn) [Example 248] ?
Reply text: 70
